I'd be grateful if you could share measured viability at 72 h, 0.0137 μM for these entries.
# Protocol text: Cellular viability (resazurin to resorufin, 72 h)
# Assay type: cell-based, human
# Recorded conditions: human, parental HEK293 T-Rex cells, HEK293 T-Rex, after 72 hrs; Log Conc -1.86273
Quick reminder: number only, in %, skip the unit.

Challenge: // lookup viability at 72 h, 0.0137 μM for "COc1ccc(C=Cc2ccncc2)c(OC)c1"
Response given: 103

Challenge: // returns reported viability at 72 h, 0.0137 μM for input COc1cc(/C=C/c2ccc(OC)cc2OC)cc(OC)c1 [Compound 1, reference compound]
Response given: 99.3

Challenge: Item "COc1ccc(/C=C/c2ccncn2)c(OC)c1" has what recorded viability at 72 h, 0.0137 μM?
Response given: 93.4

----------
# Protocol text: Stability of compounds in human liver microsomes
# Recorded conditions: human, liver microsomes
Reported endpoint: half-life (min)
Supply the numeric figure in min, leaving out any unit text.

Challenge: half-life for "COc1ccc(C=Cc2ccncc2)c(OC)c1" ?
Response given: 8.07

Challenge: Can you share its half-life? I mean this molecule: "COc1ccc(/C=C/c2ccncn2)c(OC)c1"
Response given: 6.9

----------
So I've got a bunch of molecules here, and I need their IC50 values.
# Target or system: CYP1B1 (Homo sapiens)
# Protocol text: In cell activity assay for CYP1B1 (7-ethoxyresorufin conversion, HEK293 T-Rex cells)
# Recorded conditions: read-out: IC50 CYP1B1 Dark; Dark; conversion of 7-ethoxyresorufin (REE); n = 3
Numbers only; they are read as nM.

Challenge: # query: IC50 of entry "COc1ccc(/C=C/c2cc[n+]([Ru-4]345([n+]6ccccc6-c6cccc([n+]63)-c3cccc[n+]34)[n+]3c(cc(C(=O)[O-])c4ccccc43)-c3cc(C(=O)[O-])c4ccccc4[n+]35)cc2)c(OC)c1"
Response given: 1900

Challenge: Can you share its IC50? I mean this molecule: "COc1ccc(/C=C/c2cc[n+]([Ru-4]345([n+]6ccccc6-c6cccc([n+]63)-c3cccc[n+]34)[n+]3c(cc(C(=O)[O-])c4ccccc43)-c3cc(C(=O)[O-])c4ccccc4[n+]35)cn2)c(OC)c1"
Response given: 1730

----------
# Protocol text: Stability of compounds in rat liver microsomes
# Recorded conditions: rat, liver microsomes
Would you kindly list microsomal CLint for each of these molecules?
Write the value in µL/min/mg as a bare number.

Challenge: // microsomal CLint lookup, key: "COc1ccc(C=Cc2ccncc2)c(OC)c1"
Response given: 134

Challenge: Requested field: microsomal CLint. Item: "COc1ccc(/C=C/c2ccncn2)c(OC)c1"
Response given: 205

----------
# Target or system: CYP1B1 D333N (Homo sapiens, UniProt Q16678, D333N)
# Protocol text: In cell CYP1B1 activity assay, D333N variant
Reported endpoint: pIC50
Scale: pIC50 equals -log10([C]), with [C] in mol/L.

Challenge: Notebook: pull reported pIC50 for CYP1B1 D333N (Homo sapiens, UniProt Q16678, D333N), entry "COc1ccc(/C=C/c2ccncn2)c(OC)c1"
Response given: 5.30

----------
Hi there, I'd appreciate the recorded viability at 72 h, 0.123 μM for every entry that follows.
# Protocol text: Cellular viability (resazurin to resorufin, 72 h)
# Assay type: cell-based, human
# Recorded conditions: human, parental HEK293 T-Rex cells, HEK293 T-Rex, after 72 hrs; Log Conc -0.90849
Field format: number, assumed %, no unit text.

Challenge: # input molecule: COc1cc(/C=C/c2ccc(OC)cc2OC)cc(OC)c1 [Compound 1, reference compound] ; wanted: its viability at 72 h, 0.123 μM
Response given: 98.4

Challenge: Item under review: COc1ccc(C=Cc2ccncc2)c(OC)c1 [Compound 3] . Reported viability at 72 h, 0.123 μM?
Response given: 93.3

Challenge: Please look up its viability at 72 h, 0.123 μM: COc1ccc(/C=C/c2ccncn2)c(OC)c1 [Compound 2]
Response given: 89.2

----------
# Target or system: CYP1B1 (Homo sapiens, UniProt Q16678)
# Protocol text: In cell activity assay for CYP1B1 (7-ethoxyresorufin conversion, HEK293 T-Rex cells)
# Recorded conditions: read-out: IC50 CYP1B1 Light; Light: 660 nm, 58.7 J/cm^2; REE; n = 3
Reported endpoint: IC50

Challenge: // query IC50 value for entry COc1ccc(/C=C/c2cc[n+]([Ru-4]345([n+]6ccccc6-c6cccc([n+]63)-c3cccc[n+]34)[n+]3c(cc(C(=O)[O-])c4ccccc43)-c3cc(C(=O)[O-])c4ccccc4[n+]35)cc2)c(OC)c1 [Compound 6]
Response given: 0.3 nM

Challenge: Looking for the measured IC50 of COc1ccc(/C=C/c2cc[n+]([Ru-4]345([n+]6ccccc6-c6cccc([n+]63)-c3cccc[n+]34)[n+]3c(cc(C(=O)[O-])c4ccccc43)-c3cc(C(=O)[O-])c4ccccc4[n+]35)cn2)c(OC)c1 [Compound 5] , can you help?
Response given: 17 nM

----------
Exercise: for every item that follows, state its recorded IC50.
# Target or system: CYP19A1 (Homo sapiens, UniProt P11511)
# Sequence (P11511 whole entry): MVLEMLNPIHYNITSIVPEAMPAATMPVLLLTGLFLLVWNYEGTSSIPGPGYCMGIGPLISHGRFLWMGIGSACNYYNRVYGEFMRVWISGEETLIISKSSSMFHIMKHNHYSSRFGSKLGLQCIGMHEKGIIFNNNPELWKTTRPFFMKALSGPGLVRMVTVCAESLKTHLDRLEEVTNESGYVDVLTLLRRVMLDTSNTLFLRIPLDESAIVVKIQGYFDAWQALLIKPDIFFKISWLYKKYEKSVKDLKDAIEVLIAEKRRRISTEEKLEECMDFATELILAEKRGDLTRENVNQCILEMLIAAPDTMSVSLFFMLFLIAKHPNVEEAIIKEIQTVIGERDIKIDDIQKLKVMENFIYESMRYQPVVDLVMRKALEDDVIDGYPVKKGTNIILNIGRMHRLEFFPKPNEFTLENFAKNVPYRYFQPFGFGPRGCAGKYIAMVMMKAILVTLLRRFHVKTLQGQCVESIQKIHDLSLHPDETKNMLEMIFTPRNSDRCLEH
# Protocol text: In cell activity assay for CYP19A1 (dibenzylfluorescein conversion, HEK293 T-Rex cells)
# Type: cell-based
# Recorded conditions: Dark; conversion of dibenzylfluorescein (DBF); read-out: IC50 CYP19A1 Dark
# value in µM; strip the unit string

Challenge: Give the reported IC50 for "COc1ccc(/C=C/c2cc[n+]([Ru-4]345([n+]6ccccc6-c6cccc([n+]63)-c3cccc[n+]34)[n+]3c(cc(C(=O)[O-])c4ccccc43)-c3cc(C(=O)[O-])c4ccccc4[n+]35)cn2)c(OC)c1" (system: CYP19A1 (Homo sapiens, UniProt P11511)).
Response given: 28.3

Challenge: Report IC50 for "COc1ccc(/C=C/c2ccncn2)c(OC)c1" tested on CYP19A1 (Homo sapiens, UniProt P11511).
Response given: 10.7

Challenge: Recall the recorded IC50 for "COc1ccc(C=Cc2ccncc2)c(OC)c1" with CYP19A1 (Homo sapiens, UniProt P11511) and state it.
Response given: 14.4

----------
# Protocol text: Stability of compounds in human liver microsomes
# Recorded conditions: human, liver microsomes
Answer each item with its documented CLint scaled.
Expressed in mL/min/kg, but write only the number.

Challenge: # CLint scaled lookup, item "COc1ccc(C=Cc2ccncc2)c(OC)c1"
Response given: 155

Challenge: // lookup CLint scaled for "COc1ccc(/C=C/c2ccncn2)c(OC)c1"
Response given: 181

----------
# Protocol text: Stability of compounds in human liver microsomes
# Recorded conditions: human, liver microsomes
Reported endpoint: Remaining, % (T=60min) (%)
The reply should contain only the number, in %.

Challenge: I would be grateful if you could share the reported Remaining, % (T=60min) for "COc1ccc(/C=C/c2ccncn2)c(OC)c1" .
Response given: 0.4

Challenge: Can you look up the measured Remaining, % (T=60min) of O=C(O)Cc1ccccc1Nc1c(Cl)cccc1Cl [Diclofenac, reference compound] for me?
Response given: 0.0

Challenge: Reported Remaining, % (T=60min), compound C[C@]12CC[C@H]3[C@@H](CCC4=CC(=O)CC[C@@]43C)[C@@H]1CC[C@@H]2O [Testosterone, reference compound] : ____
Response given: 3.6

Challenge: Endpoint output: Remaining, % (T=60min) of "COc1ccc(C=Cc2ccncc2)c(OC)c1" . Value?
Response given: 0.6

----------
# Target or system: CYP1B1 S127A (Homo sapiens, UniProt Q16678, S127A)
# Sequence (Q16678 1-543 S127A): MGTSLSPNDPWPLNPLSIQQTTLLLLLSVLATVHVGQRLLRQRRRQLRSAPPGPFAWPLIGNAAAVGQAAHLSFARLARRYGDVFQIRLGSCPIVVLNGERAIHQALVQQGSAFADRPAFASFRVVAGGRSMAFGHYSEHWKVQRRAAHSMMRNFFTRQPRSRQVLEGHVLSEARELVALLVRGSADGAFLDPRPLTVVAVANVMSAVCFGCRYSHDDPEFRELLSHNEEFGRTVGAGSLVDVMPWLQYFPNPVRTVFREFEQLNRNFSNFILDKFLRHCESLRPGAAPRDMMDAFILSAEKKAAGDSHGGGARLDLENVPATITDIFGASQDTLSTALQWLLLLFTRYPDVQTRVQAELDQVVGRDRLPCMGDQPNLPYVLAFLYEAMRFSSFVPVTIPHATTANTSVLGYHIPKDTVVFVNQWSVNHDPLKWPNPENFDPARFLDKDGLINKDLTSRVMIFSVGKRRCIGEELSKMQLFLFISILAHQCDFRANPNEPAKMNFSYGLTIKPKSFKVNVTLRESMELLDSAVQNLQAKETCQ
# Protocol text: In cell CYP1B1 activity assay, S127A variant
Reported endpoint: pIC50
Please treat pIC50 as minus the base-10 logarithm of the molar concentration.

Challenge: So what's the measured pIC50 for this one? COc1ccc(/C=C/c2ccncn2)c(OC)c1 [Compound 2]
Response given: 5.43
